The values you see were collected from ChEMBL document CHEMBL1154696.

Parameter log10(IC50): see the listing below.
test system: PC-3; assay: Cytotoxicity against human PC3 cells after 72 hrs by MTT assay; assay type: functional, cell-based; conditions: PC-3, 72 h
Form field - Quantity: IC50; Unit: µM; Scale: log10

The examples below pair each entry with its known result.
State, in one line, measured log10(IC50) of COc1ccc(-c2c[nH]c3c2C(=O)c2[nH]cc4c2C3=NCC4)cc1
1.75

Fill in log10(IC50) for record COc1ccc(-c2c[nH]c3c2-c2nccc4c[nH]c(c24)C3=O)cc1
1.95

Turning now to a further record.
Supply recorded log10(IC50) for O=C1c2[nH]cc3c2C(=NCC3)c2[nH]cc(-c3ccc(O)cc3)c21 here.
1.80

* * *

assay: Cytotoxicity against human U373 cells after 72 hrs by MTT assay; type: functional, cell-based, U-373MG ATCC; conditions: U373 MG
Here the recorded pIC50 is given for each entry.
Please treat pIC50 as minus the base-10 logarithm of the molar concentration.

Please review the entries below; each comes with its answer.
Kindly indicate its recorded pIC50. Item: COc1ccc(-c2c[nH]c3c2-c2nccc4c[nH]c(c24)C3=O)cc1
4.01

Answer with the recorded pIC50 for the compound listed here: COc1ccc(C(O)CNC2=CC(=O)c3c(ccn3S(=O)(=O)c3ccc(C)cc3)C2=O)cc1 (centres undefined)
4.25

Note pIC50 for the compound shown: COc1ccc(-c2c[nH]c3c2C(=O)c2c(ccn2S(=O)(=O)c2ccc(C)cc2)C3=O)cc1
4.32

Specify reported pIC50 for the compound shown: COc1ccc(C2CNC3=C2C2=NCCc4cn(S(=O)(=O)c5ccc(C)cc5)c(c42)C3=O)cc1 (centres undefined)
4.74

Tell me pIC50 reported for COc1ccc(C2CNC3=C2C(=O)c2c(ccn2S(=O)(=O)c2ccc(C)cc2)C3=O)cc1 (centres undefined)
4.28

Further cases:
Give the measured pIC50 for COc1ccc(-c2c[nH]c3c2C(=O)c2[nH]cc4c2C3=NCC4)cc1
5.39

Fill in pIC50 for record COc1ccc(-c2c[nH]c3c2C(=O)c2c(CCN)cn(S(=O)(=O)c4ccc(C)cc4)c2C3=O)cc1
5.49

Name the recorded pIC50 of the compound listed here: COc1ccc(-c2c[nH]c3c2C(=O)c2c(c(CCN)cn2S(=O)(=O)c2ccc(C)cc2)C3=O)cc1
5.07

* * *

test system: A549; experiment: Cytotoxicity against human A549 cells after 72 hrs by MTT assay; assay type: functional, cell-based; conditions: A549, 72 h
Reported pIC50 is given for each of the following compounds.
# pIC50 is unitless: minus log10 of the molar concentration; print number only

Field: example entries. Status: answers known.
Please supply the value of reported pIC50 for the item COc1ccc(-c2c[nH]c3c2C(=O)c2c(ccn2S(=O)(=O)c2ccc(C)cc2)C3=O)cc1
4.38

Quote pIC50 reported for COc1ccc(-c2c[nH]c3c2C(=O)c2c(CCN)cn(S(=O)(=O)c4ccc(C)cc4)c2C3=O)cc1 please.
5.39

Please report pIC50 for the following compound: O=C1c2[nH]cc3c2C(=NCC3)c2[nH]cc(-c3ccc(O)cc3)c21
4.45

Give the reported pIC50 for this compound. COc1ccc(C2CNC3=C2C2=NCCc4cn(S(=O)(=O)c5ccc(C)cc5)c(c42)C3=O)cc1 (configuration not stated)
5.01

Give the reported pIC50 for this compound. COc1ccc(-c2c[nH]c3c2-c2nccc4c[nH]c(c24)C3=O)cc1
4.09

New cases:
Report pIC50, nothing else, for this compound: O=C1c2cc[nH]c2C(=O)c2c(-c3ccc(O)cc3)c[nH]c21
4.13

Note pIC50 for the compound shown: COc1ccc(C2C=NC3=C2C(=O)c2cc[nH]c2C3=O)cc1 (configuration not stated)
5.11

Tell me pIC50 reported for O=C1c2[nH]cc3c2C(=NCC3)c2c(-c3ccc(O)cc3)c[nH]c21
4.81

Read the entry COc1ccc(-c2c[nH]c3c2C(=O)c2[nH]cc4c2C3=NCC4)cc1 and write its reported pIC50.
4.42

Quickly give me recorded pIC50 for COc1ccc(-c2c[nH]c3c2C2=NCCc4cn(S(=O)(=O)c5ccc(C)cc5)c(c42)C3=O)cc1
4.81

* * *

Entries and their IC50 values follow.
system: PC-3; assay: Cytotoxicity against human PC3 cells after 72 hrs by MTT assay; type: functional, cell-based; conditions: PC-3, 72 h

State its IC50: COc1ccc(-c2c[nH]c3c2C(=O)c2c(c(CCN)cn2S(=O)(=O)c2ccc(C)cc2)C3=O)cc1
31.3 µM

Note IC50 for the molecule shown: COc1ccc(-c2c[nH]c3c2C2=NCCc4c[nH]c(c42)C3=O)cc1
> 100 µM

Further cases:
Could you please provide reported IC50 for COc1ccc(-c2c[nH]c3c2C(=O)c2[nH]ccc2C3=O)cc1 ? Thanks!
> 100 µM

* * *

system: A549; experiment: Cytotoxicity against human A549 cells after 72 hrs by MTT assay; assay type: functional, cell-based; conditions: A549, 72 h
experimentalEndpoint: pIC50
Remember, pIC50 is on a log scale: it is -log10 of the molar concentration.

Please look at this compound and report its pIC50: COc1ccc(C2CNC3=C2C(=O)c2ccn(S(=O)(=O)c4ccc(C)cc4)c2C3=O)cc1 (stereo not given)
4.45

Supply reported pIC50 belonging to this compound: COc1ccc(-c2c[nH]c3c2C(=O)c2c4c(cn2S(=O)(=O)c2ccc(C)cc2)CCN=C34)cc1
5.51

Return pIC50 (reported value) for this compound: COc1ccc(C(O)CNC2=CC(=O)c3c(ccn3S(=O)(=O)c3ccc(C)cc3)C2=O)cc1 (stereo not given)
4.15

Let us examine a further case.
Please supply the value of reported pIC50 for the item COc1ccc(-c2c[nH]c3c2C(=O)c2ccn(S(=O)(=O)c4ccc(C)cc4)c2C3=O)cc1
4.11

* * *

Known IC50 of a selection of molecules
test: Cytotoxicity against human U373 cells after 72 hrs by MTT assay; type: functional, cell-based, U-373MG ATCC; conditions: U373 MG
Supply the numeric figure in µM, leaving out any unit text.

Determine its reported IC50: O=C1c2[nH]cc3c2C(=NCC3)c2[nH]cc(-c3ccc(O)cc3)c21
62.2

Give the reported IC50 for this molecule. COc1ccc(-c2c[nH]c3c2C(=O)c2c4c(cn2S(=O)(=O)c2ccc(C)cc2)CCN=C34)cc1
41.4

Output IC50 of COc1ccc(-c2c[nH]c3c2C2=NCCc4cn(S(=O)(=O)c5ccc(C)cc5)c(c42)C3=O)cc1
57.4

Return IC50 for the following molecule: COc1ccc(C2CNC3=C2C(=O)c2ccn(S(=O)(=O)c4ccc(C)cc4)c2C3=O)cc1 (stereo not drawn)
47.2

Note down IC50 recorded for O=C1c2cc[nH]c2C(=O)c2c(-c3ccc(O)cc3)c[nH]c21
37

Please report the measured IC50 for COc1ccc(C2C=NC3=C2C(=O)c2cc[nH]c2C3=O)cc1 (stereo not drawn)
7.6

Retrieve IC50 measured for COc1ccc(C(O)CNC2=CC(=O)c3ccn(S(=O)(=O)c4ccc(C)cc4)c3C2=O)cc1 (stereo not drawn) and print it.
29.2

Tell me IC50 reported for O=C1c2[nH]cc3c2C(=NCC3)c2c(-c3ccc(O)cc3)c[nH]c21
18.1

For the molecule COc1ccc(C2CNC3=C2C(=O)c2c4c(cn2S(=O)(=O)c2ccc(C)cc2)CCN=C34)cc1 (stereo not drawn) , give its reported IC50.
30.5

* * *

system: PC-3; assay: Cytotoxicity against human PC3 cells after 72 hrs by MTT assay; type: functional, cell-based; conditions: PC-3, 72 h
experimentalEndpoint: IC50 (µM)
Express it in µM; write the number only.

Assign IC50 to the following record: COc1ccc(C(O)CNC2=CC(=O)c3c(ccn3S(=O)(=O)c3ccc(C)cc3)C2=O)cc1 (stereo unspecified)
37.3

Specify reported IC50 for the compound shown: COc1ccc(C2CNC3=C2C(=O)c2c(ccn2S(=O)(=O)c2ccc(C)cc2)C3=O)cc1 (stereo unspecified)
33.7

Return IC50 (reported value) for this compound: COc1ccc(-c2c[nH]c3c2C(=O)c2ccn(S(=O)(=O)c4ccc(C)cc4)c2C3=O)cc1
24.6

Complete the entry with IC50 for COc1ccc(-c2c[nH]c3c2C(=O)c2c(ccn2S(=O)(=O)c2ccc(C)cc2)C3=O)cc1
48.2

Look up IC50 of COc1ccc(C2CNC3=C2C(=O)c2ccn(S(=O)(=O)c4ccc(C)cc4)c2C3=O)cc1 (stereo unspecified) and report it.
37.5

Return the recorded IC50 value; entry: COc1ccc(C2CNC3=C2C(=O)c2c4c(cn2S(=O)(=O)c2ccc(C)cc2)CCN=C34)cc1 (stereo unspecified)
20.5

Continuing:
Answer with reported IC50 of COc1ccc(-c2c[nH]c3c2C(=O)c2c(CCN)cn(S(=O)(=O)c4ccc(C)cc4)c2C3=O)cc1
4.2

State, in one line, measured IC50 of COc1ccc(C2CNC3=C2C2=NCCc4cn(S(=O)(=O)c5ccc(C)cc5)c(c42)C3=O)cc1 (stereo unspecified)
20.5

Answer with the recorded IC50 for the compound listed here: O=C1c2[nH]cc3c2C(=NCC3)c2c(-c3ccc(O)cc3)c[nH]c21
23
